- ASSAY DETAILS: Acute toxicity, rat
- Format: in vivo
- CONDITION PARAMETERS: in vivo
PROPERTY: LD50

{"columns": ["COMPOUND", "PROPERTY", "MEASURED"],
 "data": [
  ["CCOC(=O)C(C)(C)Oc1ccc(Cl)cc1 [Clofibrate, reference compound]", "LD50", "1100 mg/kg"]
]}

* * *

- ASSAY DETAILS: Acute toxicity, mouse
- Type: in vivo
- CONDITION PARAMETERS: in vivo

{"columns": ["COMPOUND", "LD50"],
 "data": [
  ["CCOC(=O)C(C)(C)Oc1ccc(Cl)cc1 [Clofibrate, reference compound]", "2960 mg/kg"]
]}
